Hi there, I'd appreciate the recorded pIC50 for every entry that follows.
Molecular target: UniProt:Q06124
Sequence (Q06124 whole entry): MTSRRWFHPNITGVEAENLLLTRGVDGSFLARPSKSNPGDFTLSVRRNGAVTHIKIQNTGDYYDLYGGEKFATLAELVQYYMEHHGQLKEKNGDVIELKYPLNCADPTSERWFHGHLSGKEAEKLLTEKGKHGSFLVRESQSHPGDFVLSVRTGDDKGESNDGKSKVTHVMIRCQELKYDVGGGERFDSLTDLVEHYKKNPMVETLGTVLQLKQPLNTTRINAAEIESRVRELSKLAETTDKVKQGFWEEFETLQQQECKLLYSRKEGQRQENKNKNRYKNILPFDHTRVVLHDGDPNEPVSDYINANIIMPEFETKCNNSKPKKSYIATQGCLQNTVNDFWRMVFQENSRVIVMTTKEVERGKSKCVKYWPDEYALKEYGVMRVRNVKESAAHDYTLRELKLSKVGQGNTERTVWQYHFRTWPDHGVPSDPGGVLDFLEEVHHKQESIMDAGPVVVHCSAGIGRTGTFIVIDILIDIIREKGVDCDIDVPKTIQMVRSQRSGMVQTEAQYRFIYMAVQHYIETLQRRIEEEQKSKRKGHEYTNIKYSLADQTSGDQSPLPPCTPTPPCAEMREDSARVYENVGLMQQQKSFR
Assay: Inhibition of recombinant human SHP2 expressed in Escherichia coli using 2P-IRS1 peptide as substrate after 1 hr by microplate reader analysis
The scale used: pIC50 is minus the common logarithm of the concentration in molar units.

Query: Entry `CC(C)OC(=O)c1cc(O)c(=O)c2c(O)c(O)c(F)cc2c1` : reported pIC50 = ?
Reply: 5.11

Query: Entry `O=C(O)c1cc(O)c(=O)c2c(O)c(O)c(F)cc2c1` : reported pIC50 = ?
Reply: 6.56

Query: Entry `COC(=O)c1cc(O)c(=O)c2c(O)c(O)c(F)cc2c1` : reported pIC50 = ?
Reply: 5.12

Query: Entry O=C(O)c1cc(O)c(=O)c2c(O)c(O)ccc2c1 [7-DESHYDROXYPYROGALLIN-4-CARBOXYLIC ACID] : reported pIC50 = ?
Reply: 7.01

Query: Entry `COC(=O)c1cc(O)c(=O)c2c(O)c(O)ccc2c1` : reported pIC50 = ?
Reply: 6.79

Query: Entry `NC(=O)c1cc(O)c(=O)c2c(O)c(O)ccc2c1` : reported pIC50 = ?
Reply: 5.39

Query: Entry `CCOC(=O)c1cc(O)c(=O)c2c(O)c(O)ccc2c1` : reported pIC50 = ?
Reply: 6.01

Query: Entry `O=c1c(O)cc(-c2nc(CCl)co2)cc2ccc(O)c(O)c12` : reported pIC50 = ?
Reply: 5.80

Query: Entry `CCOC(=O)c1cc(O)c(=O)c2c(O)c(O)c(F)cc2c1` : reported pIC50 = ?
Reply: 5.18

Query: Entry `N#Cc1cc(O)c(=O)c2c(O)c(O)ccc2c1` : reported pIC50 = ?
Reply: 5.91

Query: Entry `COC(=O)c1cc(O)c(=O)c2c(O)c(O)c(OC)cc2c1` : reported pIC50 = ?
Reply: 5.06

Query: Entry `CC(C)OC(=O)c1cc(O)c(=O)c2c(O)c(O)ccc2c1` : reported pIC50 = ?
Reply: 5.31

Query: Entry `NC(=O)c1cc(O)c(=O)c2c(O)c(O)c(F)cc2c1` : reported pIC50 = ?
Reply: 6.02
